Sourced from the supplement of paper PMC4932681

tested on: T-47D Tam1; assay: relative IC50 (midpoint of fitted logistic curve, plateau may be below 50% inhibition; CellTiter-Glo viability); higher = less potent; conditions: 4-OH-tamoxifen in medium 1 µM; 72 h
readout.type: relative IC50

- compound: "CN(Cc1cnc2nc(N)nc(N)c2n1)c1ccc(C(=O)N[C@@H](CCC(=O)O)C(=O)O)cc1 [Methotrexate]"
  measured.value: "> 10000 nM"
- compound: "CNC(=O)c1cc(Oc2ccc(NC(=O)Nc3ccc(Cl)c(C(F)(F)F)c3)cc2)ccn1 [Sorafenib]"
  measured.value: "> 1000 nM"
- compound: "CO[C@H](C(=O)[C@@H](O)[C@@H](C)O)[C@@H]1Cc2cc3cc(O[C@H]4C[C@@H](O[C@@H]5C[C@@H](O)[C@H](O)[C@@H](C)O5)[C@H](O)[C@@H](C)O4)c(C)c(O)c3c(O)c2C(=O)[C@H]1O[C@H]1C[C@@H](O[C@@H]2C[C@@H](O)[C@@H](O[C@@H]3C[C@](C)(O)[C@H](O)[C@@H](C)O3)[C@@H](C)O2)[C@H](O)[C@@H](C)O1 [Plicamycin (Mithramycin A)]"
  measured.value: "36.3 nM"
